Provide the reported survival of each item.
test system: DeltatarO mutant; assay: S. aureus survival, RN4220 and DeltatarO strains – OD600, teichoic acid synthesis inhibitors, primary screen (AID 463173); conditions: S. aureus RN4220 wild type/DeltatarO growth, OD600, 18 h, hits give low values, screened at 18.75 µg/mL (by protocol)
Among all 52,000 compounds or so, about 4,300 (8.3%) were called active. The sample holds actives, similar compounds and a random draw of the others, so the mix is not that of the screen.
One number for each entry, in %.

Look over these answered cases.
>>> df
                                   molecule  measured_endpoint  quantitative_result
0  CCc1ccc(NC(=O)CSc2ccc3nnc(CCNS(=O)(=O)c4ccc(OC)cc4)n3n2)cc1           survival                   81
1  COc1ccc2c(C)c(CCC(=O)NCCc3ccccc3OC)c(=O)oc2c1           survival                   77
2          CNC(=O)c1ccc(CN2CCc3ccccc3C2)cc1           survival                  100
3  O=C(Cn1cc(SCc2ccc(C(F)(F)F)cc2)c2ccccc21)N1CCOCC1           survival                   85
4  COc1ccc(C2C=C(c3ccc(Cl)cc3)Nc3nc(NC(=O)CCC(=O)O)nn32)cc1 (stereo not drawn)           survival                   74
5        CC(C)OC(=O)CSc1n[nH]c(-c2cccnc2)n1           survival                  108
6  Cc1ccc(C)c(CSc2ccc3nnc(CCNS(=O)(=O)c4ccccc4)n3n2)c1           survival                   75
7           Fc1ccc(Nc2ncnc3c2nc2n3CCCC2)cc1           survival                   74

# return survival for each item in the list
1. Fc1ccc(-c2cn3cc(Cc4ccccc4Cl)sc3n2)cc1
2. Cc1ccc(CN2CCCn3nc(C(=O)NC(C)C)cc3C2=O)cc1
3. Cc1nn(CCC(=O)NCc2ccc(N(C)C)cc2)c(=O)c2nn(-c3ccccc3)c(C)c12
4. COC(=O)CSc1nnc(C2CCCCC2)n1Cc1ccccc1

[42, 0, 95, 116]

# return survival for each item in the list
1. Cc1nn(CCC(=O)NCc2ccc(Cl)cc2)c(=O)c2nn(-c3ccccc3)c(C)c12
2. Cc1cc(=O)[nH]c(SCC(=O)N2CCN(c3ccccc3)CC2)n1
3. O=S(=O)(NCCc1nnc2ccc(SCc3ccc(Cl)cc3Cl)nn12)c1ccccc1
4. N#CCCn1c(=O)n(CCC#N)c(=O)n(CCC#N)c1=O
5. COC(=O)CSc1nc(-c2ccccc2)cc(C(F)(F)F)n1
6. Cc1cc(NCCN(C)C)n2nc(C)c(-c3ccccc3)c2n1

1. 0
2. 81
3. 37
4. 79
5. 88
6. 93

# return survival for each item in the list
1. Cc1cccc(CSc2ccc3nnc(CCNS(=O)(=O)c4ccccc4)n3n2)c1
2. CCc1ccc(CNC(=O)CCn2nc(C)c3c(C)n(-c4ccccc4)nc3c2=O)cc1
3. N#Cc1c[nH]n2c(=O)cc(Cc3ccccc3)nc12
4. COc1ccccc1-c1nn(CCC(=O)Nc2cccc(C(C)=O)c2)c2nc(C)cc(C)c12
5. O=C(NCCc1ccc(Cl)cc1)C(=O)NCC(c1ccc2c(c1)OCO2)N1CCOCC1 (stereo not drawn)
6. CCCSCCCNC(=O)c1cc2n(n1)CCCN(Cc1ccc(C)cc1)C2=O
7. Cc1cccc(NC(=O)c2cccc(N3CCCS3(=O)=O)c2)c1
8. CCC(C)NC(=O)c1cc2n(n1)CCCN(Cc1ccc(C)cc1)C2=O (stereo not drawn)

[68, 55, 68, 69, 117, 89, 78, 74]
